The values you see were collected from patent US20240246946A1.

Molecular target: full length human TREX1 (Homo sapiens, UniProt Q9NSU2)
Construct: N-terminally His-Tev tagged full length human TREX1; made in house; host or cells: E. coli
Sequence (Q9NSU2 1-314): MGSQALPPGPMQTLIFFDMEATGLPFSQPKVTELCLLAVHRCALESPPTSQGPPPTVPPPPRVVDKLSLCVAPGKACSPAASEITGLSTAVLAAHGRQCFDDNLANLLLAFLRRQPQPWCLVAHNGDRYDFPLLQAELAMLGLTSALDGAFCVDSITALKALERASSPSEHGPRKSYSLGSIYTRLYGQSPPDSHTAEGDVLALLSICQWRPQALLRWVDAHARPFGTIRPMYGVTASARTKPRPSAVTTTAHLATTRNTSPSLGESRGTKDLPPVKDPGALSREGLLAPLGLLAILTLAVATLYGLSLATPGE
Experiment: hTREX1 Biochemical Assay (fluorescence, dsDNA substrate degradation)
Settings: biochemical, read-out: hTREX1 IC50
Recorded IC50 for the following compounds

In the examples that follow, each entry is paired with its recorded IC50.
compound: Cc1ncc(C(c2ccccc2Cl)C(C)c2nc(C(=O)Nc3cnoc3)c(O)c(=O)n2C)cn1 (single isomer, unassigned) [Example 44 D1E2]
IC50: 1 to 10 nM
--
compound: Cc1ccc(C(c2ccccc2C#N)C(C)c2nc(C(=O)Nc3cnoc3)c(O)c(=O)n2C)cn1 (single isomer, unassigned) [Example 5 D2E1]
IC50: > 10 nM
--
compound: CC(c1nc(C(=O)Nc2cnoc2)c(O)c(=O)n1C)C(c1ccccc1)c1cccnc1C#N (single isomer, unassigned) [Example 155 D1E1]
IC50: > 10 nM
--
compound: Cc1nn(C)c(C)c1C(c1ccccc1C#N)C(C)c1nc(C(=O)Nc2cnoc2)c(O)c(=O)n1C (single isomer, unassigned) [Example 78 D2E2]
IC50: > 10 nM
--
compound: CC(c1nc(C(=O)Nc2cnoc2)c(O)c(=O)n1C)C(c1cnn(C(F)(F)F)c1)c1ccccc1C#N (single isomer, unassigned) [Example 151 D2E2]
IC50: > 10 nM

**Query** So what's the measured IC50 for this one? CCn1cc(C(c2ccccc2C#N)C(C)c2nc(C(=O)Nc3cnoc3)c(O)c(=O)n2C)cn1 (single isomer, unassigned) [Example 13 D2E1]
**Result** 1 to 10 nM

**Query** So what's the measured IC50 for this one? Cc1n[nH]c(C)c1C(c1ccccc1C#N)C(C)c1nc(C(=O)Nc2cnoc2)c(O)c(=O)n1C (single isomer, unassigned) [Example 95 D2E2]
**Result** > 10 nM

**Query** So what's the measured IC50 for this one? CC(c1nc(C(=O)Nc2cnoc2)c(O)c(=O)n1C)C(c1cnn(C)c1)c1ccccc1Cl (single isomer, unassigned) [Example 77 D1E2]
**Result** > 10 nM

====

Target: full length mouse TREX1 (Mus musculus)
Construct: N-terminally His-Tev tagged full length mouse TREX1; made in house; host or cells: E. coli
Sequence (Q91XB0 1-314): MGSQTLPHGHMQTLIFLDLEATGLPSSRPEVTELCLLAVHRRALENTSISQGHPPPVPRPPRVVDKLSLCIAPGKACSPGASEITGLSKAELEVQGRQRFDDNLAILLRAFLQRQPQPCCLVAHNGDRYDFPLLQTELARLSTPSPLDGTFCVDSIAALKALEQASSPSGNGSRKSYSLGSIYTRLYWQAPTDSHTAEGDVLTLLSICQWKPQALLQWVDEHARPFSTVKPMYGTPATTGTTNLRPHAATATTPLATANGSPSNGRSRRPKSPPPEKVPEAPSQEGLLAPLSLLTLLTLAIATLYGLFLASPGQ
Assay: mTREX1 Biochemical Assay (fluorescence, dsDNA substrate degradation)
Conditions: biochemical, read-out: mTREX1 IC50
pIC50: −log10 of the molar value.
parameter: pIC50

In the examples that follow, each entry is paired with its recorded pIC50.
compound: CC(c1nc(C(=O)Nc2cnoc2)c(O)c(=O)n1C)C(c1ccccc1Cl)n1cccn1 (single isomer, unassigned) [Example 45 D1E1]
pIC50: < 8.00
//
compound: CC(c1nc(C(=O)Nc2cnoc2)c(O)c(=O)n1C)C(c1cnn(C)c1)c1ccccc1C#N (single isomer, unassigned) [Example 2 D2E2]
pIC50: < 8.00
//
compound: Cc1cc(C(c2cc(F)ccc2Cl)C(C)c2nc(C(=O)Nc3cnoc3)c(O)c(=O)n2C)n(C)n1 (single isomer, unassigned) [Example 113 D2E1]
pIC50: < 8.00
//
compound: CC(c1nc(C(=O)Nc2cnoc2)c(O)c(=O)n1C)C(c1cnn(C)c1)c1ccc(Cl)cc1C#N (single isomer, unassigned) [Example 27 D1E2]
pIC50: < 8.00
//
compound: Cc1ccnn1C(c1ccccc1C#N)C(C)c1nc(C(=O)Nc2cnoc2)c(O)c(=O)n1C (single isomer, unassigned) [Example 138 D1E2]
pIC50: < 8.00
//
compound: CC(c1nc(C(=O)Nc2cnoc2)c(O)c(=O)n1C)C(c1cnn(C)c1)c1cc(F)c(F)cc1Cl (single isomer, unassigned) [Example 28 D2E1]
pIC50: < 8.00

**Query** So what's the measured pIC50 for this one? CC(c1nc(C(=O)Nc2cnoc2)c(O)c(=O)n1C)C(c1cnn(CCN2CCN(C)CC2)c1)c1ccccc1C#N (single isomer, unassigned) [Example 32 D1E1]
**Result** 8.00 to 9.00

**Query** So what's the measured pIC50 for this one? COC(C)(C)Cn1cc(C(c2cc(F)ccc2Cl)C(C)c2nc(C(=O)Nc3cnoc3)c(O)c(=O)n2C)cn1 (single isomer, unassigned) [Example 93 D1E2]
**Result** < 8.00
